Below is a list of entries, each paired with its recorded IC50 value.
Target: activated p38 (Homo sapiens)
Construct: amplify the coding region of CSBP2 cDNA using a HeLa cell library
Sequence (Q16539 whole entry): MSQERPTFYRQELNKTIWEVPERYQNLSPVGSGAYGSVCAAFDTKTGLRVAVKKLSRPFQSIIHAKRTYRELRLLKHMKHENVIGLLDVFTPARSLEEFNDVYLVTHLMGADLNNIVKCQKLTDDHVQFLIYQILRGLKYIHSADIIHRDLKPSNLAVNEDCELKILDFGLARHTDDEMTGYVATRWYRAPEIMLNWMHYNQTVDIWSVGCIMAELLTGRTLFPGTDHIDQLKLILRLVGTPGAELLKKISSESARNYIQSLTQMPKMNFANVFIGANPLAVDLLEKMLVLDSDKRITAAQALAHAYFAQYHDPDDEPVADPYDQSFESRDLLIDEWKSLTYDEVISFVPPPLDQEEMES
Experiment: p38 inhibition assay: inhibition of phosphorylation of EGF receptor peptide
Settings: activated p38 5 nM, EGF receptor peptide 200 μM, ATP 100 μM, 30° C, 30 minutes
metric.name: IC50

[
  {
    "compound": "O=C(c1ccccc1)c1ccc(Nc2c(F)cccc2F)nc1 [Compound 101]",
    "metric.name": "IC50",
    "reported": "≤ 1000 nM"
  },
  {
    "compound": "OC(c1ccccc1)c1ccc(Nc2c(F)cccc2F)nc1 (stereo not shown) [Compound 201]",
    "metric.name": "IC50",
    "reported": "≤ 1000 nM"
  },
  {
    "compound": "CCOC(=O)C(=O)N(c1ccc(C(=O)c2cccc(C)c2)cn1)c1c(F)cccc1F [Compound 613]",
    "metric.name": "IC50",
    "reported": "≤ 1000 nM"
  },
  {
    "compound": "[O-][S+](c1ccccc1)c1ccc(Nc2c(F)cccc2F)nc1 (stereo not shown) [Compound 501]",
    "metric.name": "IC50",
    "reported": "≥ 10000 nM"
  },
  {
    "compound": "Cc1cccc(C(=O)c2ccc(N(C(=O)c3sc4ccccc4c3Cl)c3c(F)cccc3F)nc2)c1 [Compound 609]",
    "metric.name": "IC50",
    "reported": "1000 to 10000 nM"
  },
  {
    "compound": "COC(=O)CCC(=O)N(c1ccc(C(=O)c2ccc(Cl)c(C)c2)cn1)c1c(F)cccc1F [Compound 616]",
    "metric.name": "IC50",
    "reported": "≥ 10000 nM"
  },
  {
    "compound": "CC(=O)N(c1ccc(C(=O)c2cccc(C)c2)cn1)c1c(F)cccc1F [Compound 605]",
    "metric.name": "IC50",
    "reported": "≤ 1000 nM"
  }
]

These entries and their values trace back to patent US7271181B2.
